Target or test system: Rac GTPase-activating protein 1 (Homo sapiens) (UniProt Q9H0H5)
Sequence (Q9H0H5 whole entry, looked up): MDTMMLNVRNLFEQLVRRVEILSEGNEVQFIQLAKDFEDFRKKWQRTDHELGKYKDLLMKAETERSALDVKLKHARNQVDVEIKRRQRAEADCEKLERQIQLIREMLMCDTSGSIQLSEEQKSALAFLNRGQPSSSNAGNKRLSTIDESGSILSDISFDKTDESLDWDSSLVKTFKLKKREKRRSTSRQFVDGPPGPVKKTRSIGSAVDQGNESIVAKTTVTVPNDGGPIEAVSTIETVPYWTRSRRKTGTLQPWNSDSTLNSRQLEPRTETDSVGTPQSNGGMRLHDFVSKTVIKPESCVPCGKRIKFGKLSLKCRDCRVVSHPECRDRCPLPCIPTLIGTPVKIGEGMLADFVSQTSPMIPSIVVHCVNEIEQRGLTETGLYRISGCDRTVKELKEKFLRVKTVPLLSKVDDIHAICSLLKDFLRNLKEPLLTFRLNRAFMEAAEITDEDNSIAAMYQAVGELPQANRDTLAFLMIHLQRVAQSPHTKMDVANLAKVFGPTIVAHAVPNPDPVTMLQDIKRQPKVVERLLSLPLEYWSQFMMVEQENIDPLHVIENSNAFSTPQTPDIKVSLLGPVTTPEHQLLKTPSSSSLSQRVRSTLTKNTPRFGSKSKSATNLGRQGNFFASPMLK
Assay name: blockers of MgcRacGAP-driven Rac1 GTP hydrolysis – biochemical, ADP Hunter fluorescence, primary and confirmatory, confirmation (AID 624330);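 further: fluorescence reports GDP produced by GAP-driven GTP hydrolysis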
Test settings: MgcRacGAP-stimulated Rac1 GTP hydrolysis, at 30 µM, active compounds read high, GST-tagged Rac1 F28L mutant substrate
Hit rate of the full screen: of about 340,000 compounds, about 2,100 (0.62%) were called active. These entries were drawn from the full list. Entries with a potency or affinity are not part of this list.
Below: a set of entries, each annotated with reported inhibition.

# Molecule, inhibition, %
data = [
    ("O=C1c2cccc3cccc(c23)C(=O)N1Cc1ccco1", 6.44),
    ("O=C1c2ccccc2C(=O)N1Cc1ccco1", 8.18),
    ("COC(=O)C1=C(C)N(Cc2ccco2)C(=O)/C1=C\\c1ccc(N(C)C)cc1", 1.57),
    ("CCN(CC)c1ccc(C=C2C(=O)OC3(CCCC3)OC2=O)cc1", 14.2),
    ("COc1ccc2cc(C(=O)Nc3ccc(Cl)cc3)sc(=O)c2c1OC", 7.43),
    ("C/C(=N\\Nc1ccc([N+](=O)[O-])cc1)c1cccc(N)c1", 1.82),
    ("O=C(Nc1ccccc1)c1cc2ccccc2c(=O)s1", -4.83),
    ("Cc1ccc2c(c1)N(C(C)C(=O)NCc1ccc3c(c1)OCO3)C(=O)CO2 (stereo unspecified)", 11.4),
    ("CC(=O)Nc1cccc(NC(=O)c2csc(C)c2)c1", 8.66),
    ("CN(C)c1ccc(C=C2SC(=S)N(Cc3ccco3)C2=O)cc1", 9.1),
    ("C/C(=N\\Nc1ccc([N+](=O)[O-])cc1)c1ccc(C#N)cc1", -4.19),
]

----------
Target or test system: Rac GTPase-activating protein 1 (Homo sapiens)
Assay name: blockers of MgcRacGAP-driven Rac1 GTP hydrolysis – biochemical, ADP Hunter fluorescence, primary and confirmatory, confirmation (AID 624330);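 further: fluorescence reports GDP produced by GAP-driven GTP hydrolysis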
Test settings: MgcRacGAP-stimulated Rac1 GTP hydrolysis, at 30 µM, active compounds read high, GST-tagged Rac1 F28L mutant substrate
Screen size: about 340,000 compounds; about 2,100 (0.62%) were called active. A selection follows. Results with a measured potency or affinity are listed apart.
Would you mind labelling by inhibition? At or over 4% is Criterion met, under is Criterion not met.

# Compound, Target or test system, Label class
data = [
    ("COc1ccc(S(=O)(=O)Nc2cccc(SC)c2)cc1C(=O)N1CCOCC1", "Rac GTPase-activating protein 1 (Homo sapiens)", "Criterion met"),
    ("Cc1ccccc1SCC(=O)OCC(=O)NCCNC(=O)COC(=O)CSc1ccccc1C", "Rac GTPase-activating protein 1 (Homo sapiens)", "Criterion not met"),
    ("CC(=O)OCCCN1c2ccccc2Nc2nnc(-c3ccccc3)cc21", "Rac GTPase-activating protein 1 (Homo sapiens)", "Criterion met"),
    ("Cc1ccc(C(CNS(=O)(=O)c2ccc(F)cc2)N2CCN(C)CC2)cc1 (stereo not given)", "Rac GTPase-activating protein 1 (Homo sapiens)", "Criterion not met"),
    ("CCN(CC)c1ccc(NC(=O)COC(=O)CSc2ccc(Br)cc2C)cc1", "Rac GTPase-activating protein 1 (Homo sapiens)", "Criterion met"),
]

Where these numbers come from: PubChem BioAssay AID624330
